Test system: Scleraxis (Scx) gene transcriptional activation in TT-D6 Scx-luciferase (ScxL) cell line
ASSAY_DETAILS: SCX-LUC in vitro assay (Scx-luciferase reporter)
Type: cell-based
COND: Mus musculus, read-out: Scx-Luc (EC50 uM)
OBSERVED_PROPERTY: log10(EC50) (log10 of the value in µM)
Answers are given as log10 of EC50 in µM.

Problem: GET /values?readout=log10(EC50)&item= C[C@@H](O)c1nc2cnc3[nH]ccc3c2n1[C@@H]1CCCOC1 [reference compound]
Solution: 0.13

Problem: Look up log10(EC50) for this compound: C1=C/COCc2cc(ccc2OCCN2CCCC2)Nc2nccc(n2)-c2cccc(c2)COC/1 [reference compound]
Solution: 0.03

Problem: Look up log10(EC50) for this compound: CC[C@@](C)(Nc1ccnc(-c2c[nH]c3ncccc23)n1)C(=O)NCC(F)(F)F [reference compound]
Solution: -1.52

Problem: Look up log10(EC50) for this compound: N#CC[C@H](C1CCCC1)n1cc(-c2ncnc3[nH]ccc23)cn1 [reference compound]
Solution: -0.92

Problem: Fill in: log10(EC50) of C[C@@H](O)c1nc2cnc3[nH]ccc3c2n1[C@H]1CC[C@H](C#N)CC1 [reference compound] is ___
Solution: 0.43

Problem: Fill blank: measured log10(EC50) of the compound CC1(C)CN(C(=O)c2ccc(-c3cccc4nc(NC(=O)C5CC5)nn34)cc2)C1 [reference compound] is ____.
Solution: 0.15

Problem: Which log10(EC50) is listed for Cc1cc(Nc2nc(N[C@@H](C)c3ncc(F)cn3)ncc2Cl)n[nH]1 [reference compound] ?
Solution: -2.10

Next compound, please.
Problem: I have this compound here, O=C(Nc1nc2cccc(-c3ccc(CN4CCS(=O)(=O)CC4)cc3)n2n1)C1CC1 [reference compound] , and I need its recorded log10(EC50).
Solution: 0.64
